# Test system: MDA-MB-231 breast
# Assay: NCI tumour cell line growth inhibition, 48 h
Readout label: TGI

molecular_string=Cc1cn(Cc2cccc(C3=NCCCN3)c2)c(=O)n(Cc2cccc(C3=NCCCN3)c2)c1=O reported_value="> 100 µM"
molecular_string=O=[N+]([O-])c1ccc2sc(/C=N/c3ccccn3)cc2c1 reported_value="> 100 µM"
molecular_string=C/C(=N\Nc1nc2ccccc2[nH]1)c1cnccn1 reported_value="> 57.8 µM"

---

Each item that follows carries a reported TGI.
# Tested on: UO-31 renal
# Assay: NCI tumour cell line growth inhibition, 48 h
Readout label: TGI

molecular_string=CCCCCCCCCCCCN=C(N)c1ccc(N2CCN(c3ccc(C(N)=NCCCCCCCCCCCC)cc3)CC2)cc1 reported_value="> 50 µM"
molecular_string=Cc1cn(Cc2cccc(C3=NCCCN3)c2)c(=O)n(Cc2cccc(C3=NCCCN3)c2)c1=O reported_value="> 100 µM"
molecular_string=CCOC(=O)c1[nH]c2cc(OC)c(OC)cc2c1CN(C)C reported_value="> 100 µM"

---

# Test system: HCC-2998 colon
# Assay: NCI tumour cell line growth inhibition, 48 h
Readout label: TGI

compound=CCOC(=O)c1[nH]c2cc(OC)c(OC)cc2c1CN(C)C reported_value="> 100 µM"
compound="CCOC(=O)C1C(c2ccc(OC)cc2)c2c([nH][nH]c2=O)CC1(C)O (stereo not drawn)" reported_value="> 100 µM"
compound=CC(C)(C)[C@H]1CO[C@]2(c3ccccc3)[C@@H]3C[C@@H]3C(=O)N12 reported_value="> 100 µM"

---

# System: A549 NSCLC
# Assay: NCI tumour cell line growth inhibition, 48 h
Each item that follows carries a reported TGI.
Readout label: TGI

compound="CC(NC1=CC(=O)c2cccnc2C1=O)C(O)c1ccccc1 (stereo not given)" readout_label=TGI reported_value="5.13 µM"
compound="CC1(C)c2ccccc2N2O[C@@H]3C(=O)N(c4ccccc4)C(=O)[C@@H]3C21c1ccccc1 (stereo not given in full)" readout_label=TGI reported_value="> 100 µM"
compound=CC1(C)C(=O)C(C)(C)C1=NNC(N)=S readout_label=TGI reported_value="> 100 µM"
compound=CS(=O)(=O)OCCCSCCSCCCOS(C)(=O)=O readout_label=TGI reported_value="> 100 µM"
compound=CCOC(=O)c1[nH]c2cc(OC)c(OC)cc2c1CN(C)C readout_label=TGI reported_value="> 100 µM"

---

# Test system: NCI-H522 lung
# Assay: NCI tumour cell line growth inhibition, 48 h
Readout label: TGI

compound=Cc1nc2sc3c(N)ncnc3c2c(C)c1C readout_label=TGI reported_value="> 25 µM"
compound="O=C(Nc1ccccc1)OC1OC(COC(=O)c2ccccc2)C(OC(=O)c2ccccc2)C1OS(=O)(=O)c1ccc([N+](=O)[O-])cc1 (stereo not given)" readout_label=TGI reported_value="> 100 µM"
compound=CO[C@@]12C[C@@H](C)[C@]34O[C@H]3C[C@]3(C)O[C@]43CC1=C(C)C(=O)O2 readout_label=TGI reported_value="> 100 µM"
compound=CS(=O)(=O)OCCCSCCSCCCOS(C)(=O)=O readout_label=TGI reported_value="> 100 µM"
compound=Cc1nc2cc3ccccc3cc2[nH]c1=O readout_label=TGI reported_value="> 100 µM"

---

# Tested on: SF-295 CNS
# Assay: NCI tumour cell line growth inhibition, 48 h
Readout label: TGI

molecule=Oc1ccc2ccccc2c1C=NCc1c(O)ccc2ccccc12 study_system="SF-295 CNS" reported_value="> 100 µM"
molecule=COC(=O)c1c(C)c2c(c(C)c1C(=O)OC)-c1c(C)ccc3ccc(C)c-2c13 study_system="SF-295 CNS" reported_value="> 87.1 µM"
molecule="CC(=O)C1C(=O)C(=O)N(c2ccc([N+](=O)[O-])cc2)C1=O (stereo not drawn)" study_system="SF-295 CNS" reported_value="> 100 µM"
molecule=CS(=O)(=O)OCCCSCCSCCCOS(C)(=O)=O study_system="SF-295 CNS" reported_value="> 100 µM"
molecule=O=[N+]([O-])c1cc(N=Nc2c(O)ccc3cc(S(=O)(=O)O)ccc23)c(O)c([N+](=O)[O-])c1 study_system="SF-295 CNS" reported_value="> 100 µM"
molecule=C[N+](C)(C)c1cc[c]([Sn]([c]2ccc([N+](C)(C)C)cc2)([c]2ccc([N+](C)(C)C)cc2)[c]2ccc([N+](C)(C)C)cc2)cc1 study_system="SF-295 CNS" reported_value="> 100 µM"
molecule=CCOC(=N)CC(=O)Nc1ccccc1 study_system="SF-295 CNS" reported_value="> 100 µM"
molecule=CO[C@]12S[C@@H]3CCCC[C@@]31C(C)(C)C(=O)N2c1ccccc1 study_system="SF-295 CNS" reported_value="51.1 µM"

---

Each item that follows carries a reported TGI.
# System: RPMI-8226 leukemia
# Assay: NCI tumour cell line growth inhibition, 48 h
Readout label: TGI

molecular_string=Cn1c(=O)cc2[nH]c3ccccc3n2c1=O reported_value="> 100 µM"
molecular_string=COS(C)(=O)=O reported_value="> 2 µM"
molecular_string=Nc1ncc(C=O)c(NCC2(CO)CCC2)n1 reported_value="> 100 µM"
molecular_string=N#CC(C#N)=c1c2ccccc2c(=C(C#N)C#N)c2ccccc12 reported_value="> 100 µM"
